- ASSAYED TARGET: GLP-1 receptor (human, UniProt P43220 24-463)
- PROTOCOL SUMMARY: cell-based or functional assay
No end group written: not given here.
PARAMETER: EC50 (cAMP luciferase reporter)

>>> recorded_measurement("HSQGTFTSDYSKYLDERRAKDFVQWLMNT-NH2 (not fully specified; also: further groups not given here) [Glucagon Analog 67]")
"71 pM"
>>> recorded_measurement("HSQGTFTSDYSKYLDEKRAKEFVCWLLDGGPSSGAPPPS-NH2 (not fully specified; also: further groups not given here) [Glucagon Analog 61]")
"96 pM"
>>> recorded_measurement("HSQGTFTSDYSKYLDERRAKEFVQWLMNT-NH2 (not fully specified; also: further groups not given here) [Glucagon Analog 68]")
"75 pM"
>>> recorded_measurement("HSQGTFTSDYSKYLDSKRAQEFVQWLMNT-NH2 (also: non-coded residues and acylation only) [Glucagon Analog 66]")
"130 pM"
>>> recorded_measurement("HSQGTFTSDYSKYLDEKRAKEFVQWLMNT-NH2 (not fully specified; also: further groups not given here) [Glucagon Analog 65]")
"36 pM"

Each recorded value in this set is attributed to patent US20120288511A1.
